- study target: prolyl endopeptidase (Bos taurus)
- Construct: prolyl endopeptidase which was purified from bovine brain; from tissue; host or cells: bovine brain
- protocol summary: Prolyl endopeptidase inhibitory activity in vitro
- Assay type: biochemical, bovine
Listed compounds paired with reported log10 of IC50
A value of 2 here means IC50 of 100 in nM, since values are log10.

Examples from the recorded data:
CC(C)C(CCCCCc1ccccc1)C(=O)N1CCC[C@H]1C=O (stereo partly shown)	1.90
COc1ccc(CCCCCC(C(=O)N2CCC[C@H]2C=O)C(C)C)cc1 (stereo partly shown)	2.23
O=C[C@@H]1CCCN1C(=O)[C@@H]1CCC[C@H]1CCCCc1ccccc1 (relative stereo)	2.11
CC(C)C(CCCCCCCc1ccccc1)C(=O)N1CCC[C@H]1C=O (stereo partly shown)	2.36
CC(C)C(CCCCCCc1ccccc1)C(=O)N1CCC[C@H]1C=O (stereo partly shown)	2.28

Problem: Quick one: log10 of IC50 of CC(C)C(CCCc1ccccc1)C(=O)N1CCC[C@H]1C=O (stereo partly shown) ?
Solution: 2.57

Problem: // query log10 of IC50 value for entry COc1ccc(CCCC(=O)N2CCC[C@H]2C=O)cc1 [reference compound]
Solution: 4.32

Problem: Which log10 of IC50 is listed for CC(C)C(CCCCCCCCc1ccccc1)C(=O)N1CCC[C@H]1C=O (stereo partly shown) [1(e)] ?
Solution: 2.08

Problem: Would you mind telling me what log10 of IC50 value was observed for CC(C)C(CCCCc1ccccc1)C(=O)N1CCC[C@H]1C=O (stereo partly shown) ?
Solution: 2.45

###

- study target: prolyl endopeptidase (Bos taurus)
- Construct: prolyl endopeptidase which was purified from bovine brain; from tissue; host or cells: bovine brain
- Sequence (Q9XTA2 1-710): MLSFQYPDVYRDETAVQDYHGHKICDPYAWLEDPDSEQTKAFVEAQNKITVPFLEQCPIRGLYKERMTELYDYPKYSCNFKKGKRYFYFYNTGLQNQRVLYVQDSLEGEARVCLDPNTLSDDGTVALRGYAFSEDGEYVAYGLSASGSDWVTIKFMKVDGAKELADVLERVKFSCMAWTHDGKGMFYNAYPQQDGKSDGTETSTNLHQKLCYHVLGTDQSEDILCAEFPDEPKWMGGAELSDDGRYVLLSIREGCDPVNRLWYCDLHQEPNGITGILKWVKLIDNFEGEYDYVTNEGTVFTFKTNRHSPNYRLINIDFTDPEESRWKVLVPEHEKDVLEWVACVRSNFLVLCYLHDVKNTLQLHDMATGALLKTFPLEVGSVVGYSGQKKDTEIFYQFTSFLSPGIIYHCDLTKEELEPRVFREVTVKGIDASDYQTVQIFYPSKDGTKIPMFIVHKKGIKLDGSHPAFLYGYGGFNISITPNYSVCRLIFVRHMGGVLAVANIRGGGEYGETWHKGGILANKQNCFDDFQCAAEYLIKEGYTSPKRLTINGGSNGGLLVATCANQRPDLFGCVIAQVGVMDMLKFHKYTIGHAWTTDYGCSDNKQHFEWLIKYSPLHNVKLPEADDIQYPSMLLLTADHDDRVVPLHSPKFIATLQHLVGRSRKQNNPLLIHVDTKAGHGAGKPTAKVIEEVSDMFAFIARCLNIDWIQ
- protocol summary: Prolyl endopeptidase inhibitory activity in vitro
- Type: biochemical, bovine
- conditions used: read-out: Concentration for 50% inhibition IC50; Table II, formula (Ib); purified from bovine brain; pH 7.5, 37° C.
parameter: IC50
Answer format reminder: number followed by unit.

O=C[C@@H]1CCCN1C(=O)C(CCCCc1ccccc1)C1CCCCC1 (some centres unmarked)	690 nM

With those in mind, consider the next compound.
Problem: Any idea what its IC50 is? The compound is O=C[C@@H]1CCCN1C(=O)C(CCCCCc1ccccc1)c1ccccc1 (some centres unmarked)
Solution: 610 nM
